Reported pKi values are given for each entry in this list.
assaySystem: Carbonic anhydrase 1 (Homo sapiens)
Sequence (P00915 whole entry): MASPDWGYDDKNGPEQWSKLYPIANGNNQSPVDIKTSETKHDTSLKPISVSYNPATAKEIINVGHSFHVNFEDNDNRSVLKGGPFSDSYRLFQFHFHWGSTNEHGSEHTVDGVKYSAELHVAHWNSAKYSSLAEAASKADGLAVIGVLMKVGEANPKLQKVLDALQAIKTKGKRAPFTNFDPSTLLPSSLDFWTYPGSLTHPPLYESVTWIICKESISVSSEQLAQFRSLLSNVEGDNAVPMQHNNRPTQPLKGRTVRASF
pKi: −log10 of the molar value.

{"columns": ["sampleSmiles", "pKi"],
 "data": [
  ["Fc1ccccc1/C=N/Cc1ccccc1", "< 4.00"]
]}

pKi for O=C(O)c1cccc(/C=N/Cc2ccccc2)c1 is < 4.00

====

assaySystem: Carbonic anhydrase 2 (Homo sapiens, UniProt P00918)
experimentDescription: Binding affinity to human carbonic anhydrase 2
propertyName: pKi
Hey, just a heads up that pKi is the negative log base 10 of the concentration in molar.

Assay Carbonic anhydrase 2 (Homo sapiens, UniProt P00918), sample Cc1ccc(S(=O)(=O)O)cc1 , pKi read: 3.34

====

assaySystem: Carbonic anhydrase 2 (Homo sapiens)
experimentDescription: Inhibition of human erythrocytes carbonic anhydrase 2 by CO2 hydration assay
propertyName: Ki

Below, 4 compounds whose answers are already recorded.
{"columns": ["sampleSmiles", "Ki"],
 "data": [
  ["O=C(O)c1cccc(CNCc2ccccc2)c1", "> 100 µM"],
  ["O=S(=O)(O)c1ccc(/C=N/Cc2ccccc2)o1", "> 100 µM"],
  ["O=C(O)c1cccc(/C=N/Cc2ccccc2)c1", "> 100 µM"],
  ["Fc1ccccc1CNCc1ccccc1", "> 100 µM"]
]}

Per the record, Fc1ccccc1/C=N/Cc1ccccc1 has Ki of > 100 µM
